Assay: Particle size distribution of aerosols by laser diffraction, Pari LC Sprint nebulizer
Type: physicochemical
Conditions: NAC 8 mg/mL in saline; mean
Experimental: The particle size distributions (PSD) of 5 formulations containing bromelain and acetylcysteine at different concentrations were determined. […] The nebulizer was connected to a USP induction port (throat), and particle size was measured at flow rate of 15 L/min in Spraytec particle sizer (Malvern Instruments, Malvern, UK). […] Results are expressed as D10, D50 and D90, indicating the particle diameter at 10, 50 and 90% in the cumulative distribution. […]
QUANTITY KIND: D10
Please answer using the number first and the unit second.

D10 reported for this molecule CC(=O)N[C@@H](CS)C(=O)O [NAC, N-acetylcysteine] : 1.19 µm
